MEASURED_ON: AQ STING (truncated human STING G230A-R293Q allelic form) (Homo sapiens, UniProt Q86WV6, G230A/H232R/R293Q)
Construct: truncated human WT STING or AQ STING (amino acid residues 140-343); 8xHis (N, cleaved yes); SUMO (N, cleaved yes); made in house; host or cells: E. coli Rosetta-gami B (DE3)
Sequence (Q86WV6 140-343 G230A/H232R/R293Q): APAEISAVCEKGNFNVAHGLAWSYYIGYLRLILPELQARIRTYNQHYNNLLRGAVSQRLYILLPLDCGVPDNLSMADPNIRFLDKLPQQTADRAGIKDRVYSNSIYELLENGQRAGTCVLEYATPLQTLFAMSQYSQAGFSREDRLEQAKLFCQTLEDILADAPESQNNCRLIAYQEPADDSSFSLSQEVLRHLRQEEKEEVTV
EXPERIMENT_NOTES: Differential Scanning Fluorimetry with AQ STING
Format: binding
MEASUREMENT_SETUP: thermal shift vs apoprotein; 150 μM CDN; 0.1 mg/ml STING protein; SYPRO Orange; read-out: DSF ΔTm (° C.) AQ STING
Excerpt: Purified PCR products were cleaved with restriction enzymes BamHI (cat. #R0136S, NEB, Ipswich, USA) and NotI (cat. #R0189S, NEB, Ipswich, USA) and cloned into the pSUMO vector linearized with the identical enzymes. […]
MEASURED_PROPERTY: ΔTm at 150 µM (°C)

(I) Nc1nc2c(ncn2[C@@H]2O[C@@H]3COP(=O)(O)CO[C@H]4[C@@H](F)[C@H](n5cnc6c(N)ncnc65)O[C@@H]4COP(=O)(O)O[C@@H]2[C@@H]3O)c(=O)[nH]1
(II) Nc1nc2c(ncn2[C@@H]2O[C@@H]3COP(=O)(O)CO[C@@H]4[C@H](O)[C@@H](COP(=O)(O)O[C@H]3[C@H]2F)O[C@H]4n2cnc3c(N)ncnc32)c(=O)[nH]1
[Q] Higher ΔTm at 150 µM: I or II ? Kindly state the label of the option you pick.
[A] I

(P) Nc1ncnc2c1ncn2[C@@H]1O[C@@H]2COP(=O)(O)CO[C@H]3[C@H](O)[C@@H](COP(=O)(O)CO[C@H]2[C@@H]1O)O[C@H]3n1cnc2c(N)ncnc21
(Q) Nc1nc2c(ncn2[C@@H]2O[C@@H]3COP(=O)(O)O[C@@H]4[C@H](O)[C@@H](COP(=O)(O)CO[C@H]3[C@H]2F)O[C@H]4n2cnc3c(N)ncnc32)c(=O)[nH]1
[Q] Higher ΔTm at 150 µM: P or Q ? Kindly state the label of the option you pick.
[A] Q
(Q: 14.2 °C, P: 0.2 °C)

###

MEASURED_ON: WT STING (truncated human WT STING protein) (Homo sapiens, UniProt Q86WV6, H232R)
Construct: truncated human WT STING or AQ STING (amino acid residues 140-343); 8xHis (N, cleaved yes); SUMO (N, cleaved yes); made in house; host or cells: E. coli Rosetta-gami B (DE3)
Sequence (Q86WV6 140-343 H232R): as the sequence (Q86WV6 140-343 G230A/H232R/R293Q) above, with A91G, Q154R counted along it
EXPERIMENT_NOTES: Differential Scanning Fluorimetry with WT STING
Type: binding
MEASUREMENT_SETUP: thermal shift vs apoprotein; 150 μM CDN; 0.1 mg/ml STING protein; SYPRO Orange; read-out: DSF ΔTm (° C.) WT STING
MEASURED_PROPERTY: ΔTm at 150 µM (°C)

# annotated cases, reported ΔTm at 150 µM shown
{"MOLECULE": "Nc1nc2c(ncn2[C@@H]2O[C@@H]3COP(=O)(O)CO[C@H]4[C@@H](F)[C@H](n5cnc6c(N)ncnc65)O[C@@H]4COP(=O)(O)O[C@@H]2C3)c(=O)[nH]1 [Example 18]", "MEASURED_ON": "WT STING (truncated human WT STING protein) (Homo sapiens, UniProt Q86WV6, H232R)", "ΔTm at 150 µM (°C)": 19}
{"MOLECULE": "Nc1ncnc2c1ncn2[C@@H]1O[C@@H]2COP(=O)(O)O[C@@H]3[C@H](F)[C@@H](COP(=O)(O)CO[C@H]2[C@H]1F)O[C@H]3n1cnc2c(N)ncnc21 [Example 22]", "MEASURED_ON": "WT STING (truncated human WT STING protein) (Homo sapiens, UniProt Q86WV6, H232R)", "ΔTm at 150 µM (°C)": 9}

(1) Nc1nc2c(ncn2[C@@H]2O[C@@H]3COP(=O)(O)O[C@@H]4[C@H](O)[C@@H](COP(=O)(O)CO[C@H]3[C@H]2F)O[C@H]4n2cnc3c(N)ncnc32)c(=O)[nH]1 [Example 14]
(2) Nc1nc2c(ncn2[C@@H]2O[C@@H]3COP(=O)(O)O[C@H]4[C@@H](O)[C@H](n5cnc6c(N)ncnc65)O[C@@H]4COP(=O)(O)CO[C@@H]2[C@@H]3O)c(=O)[nH]1 [Example 3]
[Q] Kindly identify the item with the lower ΔTm at 150 µM figure among these two: 1 and 2 Kindly state the label of the option you pick.
[A] 2
